# Test system: Escherichia coli TOP10;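 note: peptides expressed intracellularly from a pBAD plasmid library in pooled LB shake-flask culture, induced with 0.3% L-arabinose, DNA abundance read by NGS, three biological replicates, DESeq2 with apeglm shrinkage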
# procedure-details: shrunken log2 fold change of peptide-encoding DNA abundance (4.5 h post-induction vs induction); higher = less antimicrobial activity (less host growth inhibition)
# condition-summary: time post-induction: 4.5 h; library: site-saturation at positions 5, 18, 19, 20
assay-endpoint: shrunken log2 fold change
# print the numeric value only

Request: Name the recorded shrunken log2 fold change of the item RRIRVRPPRLPRPRPRPLWAPRP in your answer.
Response: 0.081

Request: Report measured shrunken log2 fold change; entry is RRIRQRPPRLPRPRPRPSLQPRP
Response: -0.154

Request: For the sequence RRIRKRPPRLPRPRPRPQNCPRP , give its reported shrunken log2 fold change.
Response: -0.132

Request: Give shrunken log2 fold change for the following sequence: RRIRQRPPRLPRPRPRPEQHPRP
Response: -0.0137

Request: Let me know recorded shrunken log2 fold change for RRIRARPPRLPRPRPRPLAGPRP , thanks.
Response: 2.52

Request: Give reported shrunken log2 fold change value for RRIRERPPRLPRPRPRPHCTPRP
Response: -0.0432

Request: Using the record for RRIRPRPPRLPRPRPRPVEIPRP , state its measured shrunken log2 fold change.
Response: 0.26

Request: Note shrunken log2 fold change for the sequence shown: RRIRWRPPRLPRPRPRPQFMPRP
Response: -0.155

Request: Identify the reported shrunken log2 fold change for the following entry. RRIRYRPPRLPRPRPRPHSEPRP
Response: -0.0168

Request: Specify shrunken log2 fold change for RRIRCRPPRLPRPRPRPPASPRP and stop.
Response: 0.723

Request: Look up and state reported shrunken log2 fold change for RRIRCRPPRLPRPRPRPIQRPRP
Response: 0.0673

Request: Consider the sequence RRIRKRPPRLPRPRPRPYKRPRP . State its measured shrunken log2 fold change.
Response: -0.338

FYI, the data here is from the supplement of paper PMC9112550.
